The reported measurements were obtained from PubChem BioAssay AID902.

Method Description: qHTS Screen for Compounds that Selectively Target Cancer Cells with p53 Mutations: Cytotoxicity of p53ts Cells at the Nonpermissive Temperature; note: nearly all actives have a fitted effect of over 55% in size
Details: H1299-p53A138V viability at 39C, ATP luminescence, 24 h; series mostly up to 46.1 µM
In all, about 130,000 compounds went through this assay and about 1,900 (1.5%) were called active. Not shown: some 5% with an inconclusive outcome. Calls come from the whole dose curve; as a rule, active = well fitted cell-killing curve with a large enough effect; inconclusive = small, poorly fitted or top-dose-only effect; inactive = no such curve, though single readings can be large or run the other way. Many of the other results were omitted from the sample, so actives are more common in it than they were.
Possible outcomes: active, inactive

>>> print(df.to_string())
                                   compound  assigned_category
0  CCOc1ccc(N(Cc2ccccc2)C(=O)c2nc(S(C)(=O)=O)ncc2Cl)cc1             active
1  CC1Cc2cc(S(=O)(=O)CCC(=O)Nc3ccc(F)c(Cl)c3)ccc2N1C(=O)C1CC1 (centres undefined)           inactive
2         Cc1ccsc1C(=O)OCC(=O)c1cc2ccccc2o1           inactive
3  COc1ccc(CCN2C(=O)c3oc4cc(C)cc(C)c4c(=O)c3C2c2ccccc2F)cc1OC (centres undefined)           inactive
4  Cc1ccc(Cl)cc1NC(=O)C1CCCN(c2cnccn2)C1 (centres undefined)           inactive
5  COc1cccc(C(=O)Nc2ccc3nc4n(c(=O)c3c2)CCCCC4)c1           inactive
6           c1c2c(cc3sc(N4CCCCC4)nc13)OCCO2             active
7                  COC(=O)Cc1nc2ccccc2[nH]1           inactive
8  O=C(O)c1ccc(Cn2c(SCc3ccc(F)cc3)nc3ccncc32)cc1           inactive

====

Method Description: qHTS Screen for Compounds that Selectively Target Cancer Cells with p53 Mutations: Cytotoxicity of p53ts Cells at the Nonpermissive Temperature; note: nearly all actives have a fitted effect of over 55% in size
Details: H1299-p53A138V viability at 39C, ATP luminescence, 24 h; series mostly up to 46.1 µM
The campaign covered roughly 130,000 compounds. About 1,900 (1.5%) were called active. Not shown: some 5% with an inconclusive outcome. Calls come from the whole dose curve; as a rule, active = well fitted cell-killing curve with a large enough effect; inconclusive = small, poorly fitted or top-dose-only effect; inactive = no such curve, though single readings can be large or run the other way. For the sample, actives were picked, then their nearest neighbours and some compounds at random.
Possible outcomes: active, inactive

>>> df
                                    compound  assigned_category
 0  O=C(CN1CCCCCC1)N1c2ccccc2Sc2ccc(C(F)(F)F)cc21           inactive
 1  Cc1noc(/C=C/N(C)C)c1S(=O)(=O)N1CCCC(C(=O)Nc2cccc(F)c2)C1 (stereo unspecified)           inactive
 2  Cc1cccc(N2CCN(c3ccc(C(=O)O)cc3NC(=O)c3ccccc3F)CC2C)c1 (stereo unspecified)           inactive
 3  Cc1nc2ccn(Cc3cccs3)c(=O)c2cc1C(=O)NCc1ccc(Cl)cc1           inactive
 4  Cc1ccc(N(CC(=O)NCc2ccc(Cl)cc2)S(=O)(=O)N(C)C)cc1           inactive
 5  O=C(CSc1nnc(-c2ccccc2F)o1)Nc1cccc(C(F)(F)F)c1           inactive
 6  NC(=O)CSc1oc(-c2cccs2)nc1S(=O)(=O)c1ccccc1           inactive
 7  O=C(/C=C/c1cn(CC(O)CN2CCc3ccccc32)c2ccccc12)c1ccc(Br)cc1 (stereo unspecified)           inactive
 8  COc1ccc(OCCn2cc(C(=O)C3CCCCC3)c3ccccc32)cc1           inactive
 9  Cc1cc(/C=N/n2cnnc2)c(C)n1-c1cccc(C(=O)O)c1           inactive
10  CC1=C(c2ccc(Cl)cc2)S(=O)(=O)N=C1N1CCN(c2cc(C)ccc2C)CC1           inactive
11           Cn1c(=NC(=O)c2cnccn2)sc2ccccc21             active
12  Cc1sc(C2C(C#N)=C(N)N(c3cccc(Cl)c3)C3=C2C(=O)CCC3)cc1CN1CCOCC1 (stereo unspecified)           inactive
13  O=C(CCn1ccc2cc(S(=O)(=O)N3CCCC3)ccc21)NCc1cccc(Cl)c1           inactive
14  CCCCOc1ccc(CN2C(=O)C(=O)c3cc(Br)cc(C)c32)cc1OC             active
15  COc1ccc(CNC(=O)c2ccc3c(O)c(S(=O)(=O)c4ccccc4)c(=O)[nH]c3c2)cc1           inactive
16  COc1ccc2cc(CNc3ccc(OC)c(OC)c3)c(=O)n(CC(=O)Nc3ccccc3F)c2c1           inactive
17  Cc1ccc(-c2nc(S(=O)(=O)c3ccc(C)cc3)c(N3CCCCCC3)o2)cc1           inactive
18  CCOc1ccc(OCC)c(NS(=O)(=O)c2ccc3[nH]c(=O)ccc3c2)c1           inactive
19    CCCCOc1ccc(Cn2c(=O)oc3ccc(C)cc32)cc1OC           inactive
20   Cn1c(=NC(=O)CSCC(=O)N2CCCCC2)sc2ccccc21           inactive
21  CCOc1ccc(C(=O)/C=C/c2cn(CC(O)CN3CCCCCC3)c3ccccc23)cc1 (stereo unspecified)             active
22  CCCCCn1c(=O)[nH]c2cc(C(=O)Nc3ccc(F)cc3)ccc2c1=O           inactive
23  Cc1ccc(O)c(NC(=O)CCS(=O)(=O)c2nc(-c3ccc4c(c3)OCO4)cc(C(F)(F)F)n2)c1             active
24  Cn1nc(-c2ccccc2)c(-c2ccccc2)c(C(=O)Nc2ccc(S(N)(=O)=O)cc2)c1=O           inactive
25  CCOC(=O)c1c(C)[nH]c(C)c1S(=O)(=O)N1CCCC(C(=O)NCc2ccccc2Cl)C1 (stereo unspecified)           inactive

====

Method Description: qHTS Screen for Compounds that Selectively Target Cancer Cells with p53 Mutations: Cytotoxicity of p53ts Cells at the Nonpermissive Temperature; note: nearly all actives have a fitted effect of over 55% in size
Details: H1299-p53A138V viability at 39C, ATP luminescence, 24 h; series mostly up to 46.1 µM
Screen size: about 130,000 compounds; about 1,900 (1.5%) were called active. Another 5% or so got no clear call; they are omitted. Calls follow the shape of the dose curve; as a rule, active = well fitted cell-killing curve with a large enough effect; inconclusive = small, poorly fitted or top-dose-only effect; inactive = no such curve, though single readings can be large or run the other way. This is one part of a sample in which actives are shown more often than they occur.
Possible outcomes: yes for active, no for inactive

In [3]: df
Out[3]:
                                    molecule  assigned_category
 0  CCOC(=O)CNC(=O)c1cc2c(=O)n3cccc(C)c3nc2s1                 no
 1            CCC(CC)c1nn2cc(-c3ccccc3)nc2s1                yes
 2  CC(C)(C)c1ccc(C(=O)N2CCC(c3nc(-c4ccc(S(=O)(=O)N5CCCC5)cc4)no3)CC2)cc1                 no
 3  Cc1cccc(NC(=O)c2cc(S(=O)(=O)N3CCC4(CC3)OCCO4)ccc2F)c1                 no
 4  O=C(CCS(=O)(=O)c1ccccc1)N(Cc1cccnc1)c1nc2c(F)cccc2s1                yes
 5                   CC(C)c1nc(-c2ccccn2)no1                 no
 6  O=C(CN1CCN(Cc2ccc(Cl)cc2)C1=O)NCc1ccc(F)cc1                 no
 7  CCOc1ccc(C2C(C(=O)NC)=C(C)Nc3nc4ccccc4n32)cc1OC (stereo unspecified)                 no
 8  Oc1c(C(c2ccccc2Cl)N2CCOCC2)sc2nc(-c3ccco3)nn12 (stereo unspecified)                 no
 9  COc1ccc(Br)cc1CNC(=O)c1cc(=O)[nH]c2ccc(S(=O)(=O)N3CCCC3)cc12                 no
10  Cc1cccc(OCCSc2nc3ccccc3n2CC(=O)N2CCCCC2)c1C                 no
11  COc1ccc(NC(=O)CN2CCCN(Cc3ccccc3)S2(=O)=O)cc1                 no
12  COc1ccccc1C1C(C(=O)N2CCCCC2)=C(C)Nc2nc3ccccc3n21 (stereo unspecified)                 no
13              c1csc(-c2nc(-c3ccncc3)no2)c1                 no
14  Cn1c(=O)c2c(-c3ccccc3Br)n(Cc3ccccc3)cc2n(C)c1=O                 no
15           CNC(=O)CN1C(=O)c2ccccc2S1(=O)=O                 no
16  COc1ccc(N2C(=O)CS(=O)(=O)C23C(=O)N(Cc2ccc(C)cc2)c2ccccc23)cc1Cl (stereo unspecified)                 no
17  CC(C)(C)c1csc(NC2=NS(=O)(=O)c3ccccc32)n1                yes
18             Cn1nnnc1SCCNCc1ccc(Cl)c(Cl)c1                 no
19  Cc1oc(C)c2c(=O)cc(-c3ccc4c(c3)OCO4)cc(OC(=O)c3ccc(Cl)cc3)c12                 no
20        CCCc1nnc(NC(=O)c2cc(OC)cc(OC)c2)s1                 no
21  COc1ccc(CCNC(=O)c2cc(-c3ccc4c(c3)OCO4)on2)cc1OC                 no
22  CCc1cccc(NC(=O)Cn2nc(CC)n3c(cc4cc(C)ccc43)c2=O)c1                yes
23  O=C(NCC(c1ccc2c(c1)OCO2)N1CCN(c2ccccc2)CC1)C(=O)Nc1ccccc1F (stereo unspecified)                 no
24  CN(C(=O)CN1C(=O)CCSc2ccc(S(=O)(=O)N3CCCC3)cc21)c1ccccc1                 no
25  CCCc1nnc(NC(=O)CN2C(=O)c3ccccc3S2(=O)=O)s1                yes
26  CCc1nn(CC(=O)Nc2cc(C)cc(C)c2)c(=O)c2cc3sccc3n12                 no
27  O=C(CCOc1ccccc1)N(Cc1cccnc1)c1nc2ccc(Cl)cc2s1                 no
28  Cc1ccc(Nc2ccc3cc(S(=O)(=O)N4CCCCC4)ccc3n2)cc1F                 no
29  O=C(c1cccc(C(=O)N2CCc3ccccc32)n1)N1CCc2ccccc21                 no
30  COc1ccc(-c2cc3ccc(OCc4nn[nH]n4)cc3oc2=O)cc1                yes
